system: U2OS; experiment: cell count relative to DMSO control (panel A, nuclei/RNA/PMG/mitochondria stain) (fraction of control); higher = more cells (less toxicity); details: 10 µM; treatment time: 24 h
I'd be grateful if you could share measured cell count for these entries.

Using the record for N.N.[Cl][Pt][Cl] [cisplatin] , report its cell count.
0.948

How about this molecule: O=NN(CCCl)C(=O)NC1CCCCC1 [lomustine]
0.818

How about this molecule: CC[C@@]1([C@@H]2O[C@@H]([C@H]3O[C@@](O)(CO)[C@H](C)C[C@@H]3C)C[C@@H]2C)CC[C@H]([C@]2(C)CC[C@]3(C[C@H](O)[C@@H](C)[C@@H]([C@@H](C)[C@@H](OC)[C@H](C)C(=O)O)O3)O2)O1 [monensin]
0.339

How about this molecule: Cc1c2oc3c(C)ccc(C(=O)N[C@@H]4C(=O)N[C@H](C(C)C)C(=O)N5CCC[C@H]5C(=O)N(C)CC(=O)N(C)[C@@H](C(C)C)C(=O)O[C@@H]4C)c3nc-2c(C(=O)N[C@@H]2C(=O)N[C@H](C(C)C)C(=O)N3CCC[C@H]3C(=O)N(C)CC(=O)N(C)[C@@H](C(C)C)C(=O)O[C@@H]2C)c(N)c1=O [dactinomycin]
0.381

---

test system: U2OS; test: cell count relative to DMSO control (panel A, nuclei/RNA/PMG/mitochondria stain) (fraction of control); higher = more cells (less toxicity); settings: 5 µM; treatment time: 24 h
Tick Met if cell count is 0.6 or greater. Tick Not met if cell count is less than 0.6.

Textbook exercise: given the entry "CCCC[C@@H](C=O)NC(=O)[C@H](CC(C)C)NC(=O)[C@H](CC(C)C)NC(C)=O" , state whether its cell count is greater than or equal to 0.6.
Not met

How about this compound: "CCCCCCCC(=O)N[C@H](CN1CCCC1)[C@H](O)c1ccc2c(c1)OCCO2"
Met

How about this compound: "CC[C@]1(O)C[C@H]2CN(CCc3c([nH]c4ccccc34)[C@@](C(=O)OC)(c3cc4c(cc3OC)N(C=O)[C@H]3[C@@](O)(C(=O)OC)[C@H](OC(C)=O)[C@]5(CC)C=CCN6CC[C@]43[C@@H]65)C2)C1"
Not met

How about this compound: "COc1cc([C@@H]2c3cc4c(cc3[C@H](O)[C@H]3COC(=O)[C@@H]23)OCO4)cc(OC)c1OC"
Met

How about this compound: "CC(C)n1nc(-c2ccc3oc(N)nc3c2)c2c(N)ncnc21"
Not met

---

tested on: U2OS-LMNB1-TUBA1B-ACTB; assay: cell count relative to DMSO control (panel C1, DRAQ5/ER stain) (fraction of control); higher = more cells (less toxicity); conditions: 0.625 µM; treatment time: 24 h
Tick MET if cell count is 1 or greater. Tick NOT MET if cell count is less than 1.

Textbook exercise: given the entry NCCCCC(N)C(=O)NC(CCCCN)C(=O)NC(Cc1c[nH]c2ccccc12)C(=O)NC(Cc1c[nH]c2ccccc12)C(=O)NC(CCCCN)C(=O)NC(CCCCN)C(=O)NC(Cc1c[nH]c2ccccc12)C(=O)NC(C(=O)NC(CCCCN)C(N)=O)C(c1ccccc1)c1ccccc1 (configuration not stated) [LTX-315] , state whether its cell count is greater than or equal to 1.
MET

How about this compound: CN(Cc1cnc2nc(N)nc(N)c2n1)c1ccc(C(=O)N[C@@H](CCC(=O)O)C(=O)O)cc1 [methotrexate]
NOT MET

How about this compound: O=C(N/N=C/c1ccc(O)c(O)c1)c1cc2ccccc2cc1O [dynasore]
MET

How about this compound: CC(=O)N[C@@H](CC(C)C)C(=O)N[C@@H](CC(C)C)C(=O)N[C@H](C=O)CCCN=C(N)N [leupeptin]
MET

How about this compound: CCCCCCCC(=O)N[C@H](CN1CCCC1)[C@H](O)c1ccc2c(c1)OCCO2 [eliglustat]
MET

How about this compound: CN1CCC(c2c(O)cc(O)c3c(=O)cc(-c4ccccc4Cl)oc23)[C@@H](O)C1 (some centres not stated) [alvocidib]
NOT MET

---

I'd be grateful if you could share measured cell count for these entries.
system: U2OS; assay: cell count relative to DMSO control (panel A, nuclei/RNA/PMG/mitochondria stain) (fraction of control); higher = more cells (less toxicity); conditions: 0.15625 µM; treatment time: 24 h
Answer with a bare number; do not write a unit.

Using the record for COc1cccc2c1C(=O)c1c(O)c3c(c(O)c1C2=O)C[C@@](O)(C(C)=O)C[C@@H]3O[C@H]1C[C@H](N)[C@H](O)[C@H](C)O1 [daunorubicin] , report its cell count.
0.928

How about this molecule: COc1cc([C@@H]2c3cc4c(cc3[C@H](O)[C@H]3COC(=O)[C@@H]23)OCO4)cc(OC)c1OC [picropodophyllin]
0.97

How about this molecule: CC(=O)N[C@H]1[C@@H](O[C@@H]2O[C@H](CC(O)[C@H]3O[C@@H](n4ccc(=O)[nH]c4=O)[C@H](O)[C@@H]3O)[C@H](O)[C@H](O)[C@H]2NC(=O)/C=C/CC(C)C)O[C@H](CO)[C@@H](N)[C@@H]1O (stereo not given in full) [tunicamycin]
0.654

How about this molecule: N.N.[Cl][Pt][Cl] [cisplatin]
1.07

How about this molecule: COc1ccc(C[C@H](N)C(=O)N[C@H]2[C@@H](O)[C@H](n3cnc4c(N(C)C)ncnc43)O[C@@H]2CO)cc1 [puromycin]
1.05

How about this molecule: CN(Cc1cnc2nc(N)nc(N)c2n1)c1ccc(C(=O)N[C@@H](CCC(=O)O)C(=O)O)cc1 [methotrexate]
0.699

How about this molecule: CCCC[C@H]1C(=O)O[C@H](C)[C@H](NC(=O)c2cccc(NC=O)c2O)C(=O)O[C@@H](C)[C@@H]1OC(=O)CC(C)C [antimycin-a]
1.04

How about this molecule: C[C@H]1O[C@@H](O[C@H]2[C@@H](O)C[C@H](O[C@H]3[C@@H](O)C[C@H](O[C@H]4CC[C@@]5(C)[C@H](CC[C@@H]6[C@@H]5CC[C@]5(C)[C@@H](C7=CC(=O)OC7)CC[C@]65O)C4)O[C@@H]3C)O[C@@H]2C)C[C@H](O)[C@@H]1O [digitoxin]
1.02

How about this molecule: CC[C@H]1/C=C/C=C/C[C@@H](C)[C@H](O)[C@@](C)(O)C(=O)[C@@H](C)[C@H](O)[C@@H](C)C(=O)[C@@H](C)[C@H](O)[C@@H](C)/C=C/C(=O)O[C@@H]2[C@H](C)[C@H](CC1)O[C@]1(CC[C@H](C)[C@H](C[C@@H](C)O)O1)[C@H]2C [oligomycin-a]
0.555

How about this molecule: CO[C@H]1C[C@@H]2CC[C@@H](C)[C@@](O)(O2)C(=O)C(=O)N2CCCC[C@H]2C(=O)O[C@H]([C@H](C)C[C@@H]2CC[C@@H](OP(C)(C)=O)[C@H](OC)C2)CC(=O)[C@H](C)/C=C(\C)[C@@H](O)[C@@H](OC)C(=O)[C@H](C)C[C@H](C)/C=C/C=C/C=C/1C [deforolimus]
0.74

---

system: U2OS; experiment: cell count relative to DMSO control (panel A, nuclei/RNA/PMG/mitochondria stain) (fraction of control); higher = more cells (less toxicity); conditions: 5 µM; treatment time: 24 h
# thresholds on cell count define classes: Low (below 0.4), Mid (0.4 to below 0.9), High (0.9 or more)

# classify by cell count band: "CNCCCN1c2ccccc2CCc2ccccc21"
Low

How about this compound: "COc1cccc2c1C(=O)c1c(O)c3c(c(O)c1C2=O)C[C@@](O)(C(C)=O)C[C@@H]3O[C@H]1C[C@H](N)[C@H](O)[C@H](C)O1"
Low

How about this compound: "Cc1c(N)nc([C@H](CC(N)=O)NC[C@H](N)C(N)=O)nc1C(=O)N[C@H](C(=O)N[C@H](C)[C@@H](O)[C@H](C)C(=O)N[C@H](C(=O)NCCc1nc(-c2nc(C(=O)NCCC[S+](C)C)cs2)cs1)[C@@H](C)O)[C@@H](O[C@@H]1O[C@@H](CO)[C@@H](O)[C@H](O)[C@@H]1O[C@H]1O[C@H](CO)[C@@H](O)[C@H](OC(N)=O)[C@@H]1O)c1c[nH]cn1"
Mid

How about this compound: CC(NC(=O)c1ccccc1/N=C/c1c(O)ccc2ccccc12)c1ccccc1 (configuration not stated)
Low

How about this compound: "C[C@H]1CCC/C=C/[C@@H]2C[C@H](O)C[C@H]2[C@H](O)/C=C/C(=O)O1"
Mid

How about this compound: "CN(C)[C@@H]1C(O)=C(C(N)=O)C(=O)[C@@]2(O)C(O)=C3C(=O)c4c(O)ccc(Cl)c4[C@@](C)(O)[C@H]3C[C@@H]12"
High

How about this compound: "O=C(/C=C/c1cccc(S(=O)(=O)Nc2ccccc2)c1)NO"
High

How about this compound: "C=CCNC1=C2C[C@@H](C)C[C@H](OC)[C@H](O)[C@@H](C)/C=C(\C)[C@H](OC(N)=O)[C@@H](OC)/C=C\C=C(/C)C(=O)NC(=CC1=O)C2=O"
Low

How about this compound: "COc1cccc2c1C(=O)c1c(O)c3c(c(O)c1C2=O)C[C@@](O)(C(=O)CO)C[C@@H]3O[C@H]1C[C@H](N)[C@H](O)[C@H](C)O1"
Low

How about this compound: "COc1cc(-n2c(=S)[nH]c3ccccc3c2=O)c(Cl)cc1Cl"
High

How about this compound: "NS(=O)(=O)C#Cc1ccccc1"
High

How about this compound: NCCCCC(N)C(=O)NC(CCCCN)C(=O)NC(Cc1c[nH]c2ccccc12)C(=O)NC(Cc1c[nH]c2ccccc12)C(=O)NC(CCCCN)C(=O)NC(CCCCN)C(=O)NC(Cc1c[nH]c2ccccc12)C(=O)NC(C(=O)NC(CCCCN)C(N)=O)C(c1ccccc1)c1ccccc1 (configuration not stated)
Mid

How about this compound: OC(CS)C(O)CS (configuration not stated)
Mid

How about this compound: "CO[C@H]1C[C@@H]2CC[C@@H](C)[C@@](O)(O2)C(=O)C(=O)N2CCCC[C@H]2C(=O)O[C@H]([C@H](C)C[C@@H]2CC[C@@H](OP(C)(C)=O)[C@H](OC)C2)CC(=O)[C@H](C)/C=C(\C)[C@@H](O)[C@@H](OC)C(=O)[C@H](C)C[C@H](C)/C=C/C=C/C=C/1C"
Low

How about this compound: "COc1ccc(C[C@H]2NC[C@H](O)[C@H]2OC(C)=O)cc1"
Low

How about this compound: "O=C(Oc1cc(S(=O)(=O)c2ccccc2)ccc1[N+](=O)[O-])c1ccc(Cl)cc1"
High

How about this compound: "CC(=O)O[C@H]1C(=O)[C@@]2(C)[C@H]([C@H](OC(=O)c3ccccc3)[C@]3(O)C[C@H](OC(=O)[C@H](O)[C@@H](NC(=O)c4ccccc4)c4ccccc4)C(C)=C1C3(C)C)[C@]1(OC(C)=O)CO[C@@H]1C[C@@H]2O"
High

How about this compound: CCOc1ccccc1-n1c(C(C)N2CCN(C(=O)COc3ccc(Cl)cc3)CC2)nc2ccccc2c1=O (configuration not stated)
High
